assayNotes: gradient 5% acetonitrile 3 min, to 50% in 2 min, to 85% in 15 min, held 3 min, 100 µL/min
details: column: Zorbax Extend-C18 2.1 x 50 mm; eluents: water / acetonitrile, 0.1% formic acid
parameter: RP-LC retention time (s)

Some compounds with known RP-LC retention time results, for comparison:
| compound | RP-LC retention time [s] |
| --- | --- |
| CCc1ccc(N2C(=O)CN(S(C)(=O)=O)CC2(C)C(=O)NCc2ccc(C)cc2)cc1 (stereo not given) | 898 |
| CCOC(=O)c1noc2ncnc(NCCCN3CCN(c4cc(C)ccc4C)CC3)c12 | 738 |
| CCOC(=O)c1noc2ncnc(NCc3cccc(Cl)c3)c12 | 1040 |

[a] Nc1cc(C2CCN(C(=O)Nc3ccc(F)cc3F)CC2)no1
[b] CCc1ccc(-c2cc(C(F)(F)F)on2)cc1S(=O)(=O)N1CCC(C)CC1
IN: Of a and b , which one carries the higher reported RP-LC retention time? Give the label under which the chosen entry appears.
OUT: b

[a] Cc1cc(NC(=O)C2CCN(C(=O)c3snnc3C)CC2)no1
[b] CCOC(=O)c1cc(S(=O)(=O)N2CCCC2C(=O)Nc2ccc(C)cc2C)cn1C (stereo not given)
IN: Of a and b , which one carries the higher reported RP-LC retention time? Give the label under which the chosen entry appears.
OUT: b

---

assayNotes: gradient 5% acetonitrile 3 min, to 50% in 2 min, to 85% in 15 min, held 3 min, 100 µL/min
details: column: Zorbax Extend-C18 2.1 x 50 mm; eluents: water / acetonitrile, 0.1% formic acid
parameter: RP-LC retention time (s)

| compound | unitTag | RP-LC retention time |
| --- | --- | --- |
| Cc1sc2ccn(Cc3ccc(F)cc3)c(=O)c2c1C(=O)NC(C)C | s | 814 |
| CC(=O)c1cccc(NC(=O)Cn2cccc2-c2nnc(C3CCC3)o2)c1 | s | 831 |
| COCCN1C(=O)[C@H]2CN(Cc3cc(OC)ccc3OC)C[C@H]2C1=O | s | 595 |
| O=C(NCC1CCCO1)C1CCN(c2nnc(-c3ccccc3)o2)CC1 (stereo not given) | s | 649 |
| COc1cc(F)c(F)c(Nc2ccc(I)cc2F)c1NS(=O)(=O)C1(C[C@H](O)CO)CC1 | s | 1050 |
| CCOC(=O)c1oc2ccccc2c1NC(=O)C1CCN(S(C)(=O)=O)CC1 | s | 762 |
| CC(=O)Nc1ccc(OCc2cc(C(=O)NC3CCCCC3)no2)cc1 | s | 781 |
| CCC(C)N1C(=O)CN(C2CCCCCC2)C(=O)C1c1ccccc1F (stereo not given) | s | 1020 |
| CCOC(=O)c1c(C)[nH]c(C(=O)N2CCC(CC(=O)NCC3CCCO3)CC2)c1C (stereo not given) | s | 657 |
| O=C(NCc1ccco1)c1ccc(NC(=O)C2CCC2)cc1N1CCOCC1 | s | 750 |

---

assayNotes: gradient 5% acetonitrile 3 min, to 50% in 2 min, to 85% in 15 min, held 3 min, 100 µL/min
details: column: Zorbax Extend-C18 2.1 x 50 mm; eluents: water / acetonitrile, 0.1% formic acid
parameter: RP-LC retention time (s)

Some compounds with known RP-LC retention time results, for comparison:
| compound | observed |
| --- | --- |
| CC(NC(=O)c1ccccc1)c1nc(-c2ccc3c(c2)nnn3C2CCCC2)no1 (centres undefined) | 964 |
| COc1cc(-c2ccccc2)nc2ccc(NS(=O)(=O)c3ccc(NC(C)=O)cc3)cc12 | 653 |
| CC(=O)Nc1ccc(-c2noc(C3CCN(C(=O)c4ccc(Br)cc4)CC3)n2)cc1 | 841 |
| CCc1nc(OCC(=O)Nc2ccc(Br)cc2F)c2ccccc2n1 | 910 |
| CC(=O)c1ccc(NC(=O)Cn2c(-c3cccnc3)nc3ccccc32)cc1 | 689 |

[a] Cc1ccc(Cn2nc3n(Cc4ccc(F)cc4)c(=O)c4nn(C)cc4n3c2=O)cc1
[b] CCOc1ccc(-c2[nH]ncc2CN2CCn3c(nn(C)c3=O)C2)cc1
IN: Of a and b , which one carries the higher reported RP-LC retention time? Give the label under which the chosen entry appears.
OUT: a
